Taken from patent US20040010116A1.

Target desc: alpha4 integrin (Homo sapiens)
Sequence (P13612 34-1032): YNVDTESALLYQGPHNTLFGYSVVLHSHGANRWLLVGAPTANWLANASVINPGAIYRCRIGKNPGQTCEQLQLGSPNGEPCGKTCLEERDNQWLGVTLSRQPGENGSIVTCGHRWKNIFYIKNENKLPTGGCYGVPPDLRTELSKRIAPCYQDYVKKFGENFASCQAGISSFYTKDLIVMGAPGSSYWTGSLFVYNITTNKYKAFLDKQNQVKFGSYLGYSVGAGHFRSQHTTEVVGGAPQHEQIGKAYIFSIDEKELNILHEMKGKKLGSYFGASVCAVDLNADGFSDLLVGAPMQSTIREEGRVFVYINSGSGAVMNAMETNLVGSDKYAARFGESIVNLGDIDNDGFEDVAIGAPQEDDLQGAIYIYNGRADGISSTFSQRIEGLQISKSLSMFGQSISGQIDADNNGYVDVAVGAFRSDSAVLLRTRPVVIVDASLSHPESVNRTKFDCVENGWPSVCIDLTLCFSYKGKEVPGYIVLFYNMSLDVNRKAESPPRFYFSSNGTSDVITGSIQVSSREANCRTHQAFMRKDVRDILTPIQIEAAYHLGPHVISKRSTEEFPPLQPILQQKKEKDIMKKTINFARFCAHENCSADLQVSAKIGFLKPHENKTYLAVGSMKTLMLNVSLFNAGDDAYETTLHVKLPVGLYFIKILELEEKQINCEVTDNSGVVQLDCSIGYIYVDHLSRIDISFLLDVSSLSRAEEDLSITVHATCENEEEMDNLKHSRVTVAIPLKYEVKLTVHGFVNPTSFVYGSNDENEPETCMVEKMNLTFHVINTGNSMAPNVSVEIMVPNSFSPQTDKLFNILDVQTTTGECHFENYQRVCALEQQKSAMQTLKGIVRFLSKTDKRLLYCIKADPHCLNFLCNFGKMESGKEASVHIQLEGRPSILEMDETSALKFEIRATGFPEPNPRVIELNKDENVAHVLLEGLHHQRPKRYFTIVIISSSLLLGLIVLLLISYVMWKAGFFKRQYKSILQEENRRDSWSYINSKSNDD
Assay protocol: alpha4 integrin binding
Experimental endpoint: FUNCTIONAL ACTIVITY: alpha4 integrin binding

>>> obs_value("QESPSGTDLLVAGSSP [SEQ ID NO:26]")
"Inhibits alpha4 integrin"
>>> obs_value("EPEESDVGGAADYP [SEQ ID NO:25]")
"Inhibits alpha4 integrin"
>>> obs_value("LDSPPAALS [SEQ ID NO:21]")
"Inhibits alpha4 integrin"
>>> obs_value("AADVESPS [SEQ ID NO:22]")
"Inhibits alpha4 integrin"

Next up:
Query :: Consider the sequence WTGGDDSGSPSSPS [SEQ ID NO:23] . State its measured FUNCTIONAL ACTIVITY: alpha4 integrin binding.
Result :: Inhibits alpha4 integrin
